Ref: patent US9545385B2

# assayProtocol: Direct cellular toxicity (total cellular ATP levels)
# Type: cell-based
# condition: human, HepG2 cells, read-out: Cellular Toxicity (EC50, μM ± SD)
measurementType: EC50 at 24 h (µM)

structurestring=Cc1nc2c(c(C)c1O)COC(=O)N2 boundtype=> measured=5000
structurestring=Cc1nc2c(c(C)c1O)CNC(=O)N2 boundtype== measured=2960
structurestring=O=C1NCc2cc(O)cnc2N1 boundtype== measured=4760
structurestring=CC(=O)Nc1ccc(O)cc1 boundtype== measured=594
